IC50 values for the compounds below.
Test system: BG-1 ovarian carcinoma cells
Test: Inhibition of BG-1 ovarian carcinoma cell proliferation
Assay type: cell-based
Details: 0.1 nM 17β-estradiol-dependent growth, 72 h, 3H-thymidine incorporation
Give just the number in nM; leave the unit off.

Here `O=c1oc2cc(O)ccc2c(Cc2ccc(OCCN3CCCC3)cc2)c1-c1ccc(Cl)cc1` was tested on BG-1 ovarian carcinoma cells, and its IC50 came to 5.8

So the reported IC50 for `O=c1oc2cc(O)ccc2c(Cc2ccc(OCCN3CCCC3)cc2)c1-c1ccc(C(F)(F)F)cc1Cl` , on BG-1 ovarian carcinoma cells, turned out to be 4.65

`O=c1oc2cc(O)ccc2c(Cc2ccc(OCCN3CCCC3)cc2)c1-c1ccc(Cl)cc1C(F)(F)F` tested on BG-1 ovarian carcinoma cells gave IC50: 2.3

For `O=c1oc2cc(O)ccc2c(Cc2ccc(OCCN3CCCC3)cc2)c1-c1ccc(C(F)(F)F)cc1` on BG-1 ovarian carcinoma cells, measured IC50 was 13.6

IC50 on BG-1 ovarian carcinoma cells for `O=c1oc2cc(O)ccc2c(Cc2ccc(OCCN3CCCC3)cc2)c1-c1ccc(C(F)(F)F)cc1C(F)(F)F` is 5.5

The measured IC50 that `O=c1oc2cc(O)ccc2c(Cc2ccc(OCCN3CCCC3)cc2)c1-c1ccc(Cl)cc1Cl` showed for BG-1 ovarian carcinoma cells is 1.4

* * *

Test system: MCF-7 breast cancer cells
Experiment: Inhibition of MCF-7 breast cancer cell proliferation
Assay type: cell-based
Conditions: Homo sapiens, MCF7; 0.1 nM 17β-estradiol-dependent growth, 72 h, 3H-thymidine incorporation
Quantity measured: IC50 (nM)
# output: bare number, implied unit nM

Smiles code	Observed
O=c1oc2cc(O)ccc2c(Cc2ccc(OCCN3CCCC3)cc2)c1-c1ccc(Cl)cc1C(F)(F)F	3
O=c1oc2cc(O)ccc2c(Cc2ccc(OCCN3CCCC3)cc2)c1-c1ccc(C(F)(F)F)cc1Cl	4.5
O=c1oc2cc(O)ccc2c(Cc2ccc(OCCN3CCCC3)cc2)c1-c1ccc(Cl)cc1Cl	6.5
O=c1oc2cc(O)ccc2c(Cc2ccc(OCCN3CCCC3)cc2)c1-c1ccc(Cl)cc1	26

Just so you know, measured IC50 for `O=c1oc2cc(O)ccc2c(Cc2ccc(OCCN3CCCC3)cc2)c1-c1ccc(C(F)(F)F)cc1` came out at 13.6

compound `O=c1oc2cc(O)ccc2c(Cc2ccc(OCCN3CCCC3)cc2)c1-c1ccc(C(F)(F)F)cc1C(F)(F)F` , IC50 observed: 26

Data provenance: patent US20070015817A1
